- System: SF-268 CNS
- Experiment: NCI tumour cell line growth inhibition, 48 h
Exercise: state measured TGI for each of the molecules provided.

COc1ccc(C2=C(Br)C(=O)OC2)cc1Cl | 99.6 µM
COc1ccc(C2Cc3cc(OC)c(OC)c(OC)c3C2=O)cc1 (centres undefined) | > 100 µM
Fc1cc(C2=C[C@H](c3ccc4c(c3)OCO4)NC(=S)N2)c(Cl)cc1Cl | > 100 µM
S=c1cn[nH]c2ccc(Br)cc12 | > 100 µM
O=C(CSc1nc2ccc(Cl)cc2c(=O)n1-c1ccccc1)N=Nc1c(O)[nH]c2ccc(F)cc12 | 8.83 µM
COC(=O)C1=C(C(=O)Nc2cccnc2)C2OC1(C(Cc1ccccc1)Oc1ccccc1)C1OC21 (centres undefined) | 27.9 µM

Please go through the list and note TGI for each molecule.
1. NC(N)=NS(=O)(=O)c1ccc(Nc2c3ccccc3nc3c(C(=O)N4CCN(CCO)CC4)ccc(Cl)c23)cc1
2. O=C(O)c1cnccc1-c1cc(=O)[nH]n1-c1ccccc1
3. S=C(Nc1ccc(-c2nc3ccccc3s2)cc1)Nc1ccccn1
4. Nc1nn(C(=O)Nc2ccc(Cc3ccccc3)cc2)c2ccc(Cl)cc12

A)
1. > 100 µM
2. > 100 µM
3. > 100 µM
4. 52.3 µM

Please go through the list and note TGI for each molecule.
1. Cn1ccnc1SC(F)(F)c1nc2ccccc2o1
2. CCN(CC)/[N+]([O-])=N/OC
3. C/C(=C\CNc1ncnc2nc(Cl)[nH]c12)CO
4. N#CC(NC12CC3CC(CC(C3)C1)C2)c1ccccc1 (centres undefined)
5. S=C1CNC(=S)CN1
6. NC(=O)c1cccc(N)c1

A)
1. > 100 µM
2. > 100 µM
3. > 100 µM
4. > 100 µM
5. > 100 µM
6. > 100 µM

Please go through the list and note TGI for each molecule.
1. CN(C)C(=O)c1nnsc1NN=O
2. C=CCOC1=C2CC[C@H](O)[C@@]2(C)CCC1=O
3. CCCCCCCCC(=O)CCCCCCCCC(=O)O
4. O=P(O)(O)OP(=O)(O)O
5. Clc1ccc(NCc2nnc(COc3ccc(OCc4nnc(CNc5ccc(Cl)cc5)o4)c(Cl)c3)o2)cc1
6. COC(=O)C1=C(O)C(C(=O)OC)[C@]2(O)[C@H](C(=O)OC)[C@H]1C[C@@H](c1ccccc1OC)[C@H]2C(=O)OC (some centres undefined)
7. Cn1c(=O)c2[nH]c(/N=N\n3ccc4ccccc43)nc2n(C)c1=O
8. O=C(CC(=O)C(=O)CC(=O)OCc1ccccc1)OCc1ccccc1

A)
> 100 µM
> 100 µM
> 100 µM
> 100 µM
> 100 µM
16.5 µM
> 100 µM
> 100 µM

* * *

- Tested on: OVCAR-3 ovarian
- Experiment: NCI tumour cell line growth inhibition, 48 h
Exercise: state measured TGI for each of the compounds provided.

Please go through the list and note TGI for each compound.
1. CCCCCCCCCCCCCCCCc1c(C(=O)OC)[nH]c(=S)[nH]c1=O
2. O=C(Nc1cccnc1)c1cccs1
3. CC(=O)O[C@@]12[C@@H]3O[C@@]4(O)C[C@]5(C)[C@H]6C[C@@](C(C)C)(O[C@H]5c5ccoc5)O[C@H]1[C@]6(C4)O[C@]2(O)C(C)=CC3(C)C
4. COc1ccc(C2=C(Br)C(=O)OC2)cc1Cl
5. NC(=O)c1cccc(N)c1

A)
1: > 50 µM; 2: > 100 µM; 3: > 100 µM; 4: > 89.8 µM; 5: > 100 µM

* * *

Exercise: state measured TGI for each of the compounds provided.
- Test system: NCI-H460 lung
- Experiment: NCI tumour cell line growth inhibition, 48 h

Sample records with TGI:
CSc1sc(C)cc1-c1nsc(=O)o1 | > 100 µM
CC(C)Cc1ccc(C(C)/C=C2\CCC(CN3CCOCC3)C2=O)cc1 (stereo not drawn) | 33.8 µM
Nn1c(-c2ccccc2Nc2ccccc2-c2n[nH]c(=S)n2N)n[nH]c1=S | > 50 µM
NC1=NN(c2ccccc2)C(=O)C1C(=O)C(=O)NC1C2CC3CC(C2)CC1C3 (stereo not drawn) | > 100 µM
COc1cccc(N=N/C(=N/NC(=O)c2cc(Cl)ccc2O)c2ccc(N(CCC#N)CCC#N)cc2C)c1 | > 100 µM
CNC(=S)NNC(=O)c1c(C)nc2sccn12 | > 100 µM
CN(C)S(=O)(=O)n1ccnc1 | > 100 µM
Cc1cc(C)c2c(=O)n(CN3CCN(c4ccccc4)CC3)sc2n1 | > 100 µM
Cn1c(=O)c2c(ncn2CCCCn2ccnc2[N+](=O)[O-])n(C)c1=O | > 100 µM
c1ccc2c(c1)nnn1c3cnccc3nc21 | 37.4 µM

Please go through the list and note TGI for each compound.
1. CC(C)N(CCCNc1c2ccccc2nc2cccc([N+](=O)[O-])c12)C(C)C
2. Cc1c(NC(=O)CCCl)c(=O)oc2c(C)c3occc(=O)c3cc12
3. Cn1c(=O)c2[nH]c(/N=N\n3ccc4ccccc43)nc2n(C)c1=O

A)
< 0.0445 µM
> 100 µM
> 100 µM

* * *

- System: HOP-62 NSCLC
- Experiment: NCI tumour cell line growth inhibition, 48 h
Measured parameter: TGI

Sample records with TGI:
c1ccc2c(c1)nnn1c3cnccc3nc21 | > 100 µM
COC(OC)C1(c2ccccc2)Oc2ccccc2C1=O (stereo not given) | > 100 µM
CCOc1ccc(/C=N/Nc2cc(C)nc3ccc(Cl)cc23)cc1 | 6.53 µM
C=CCOC1=C2CC[C@H](O)[C@@]2(C)CCC1=O | > 100 µM

Please go through the list and note TGI for each molecule.
1. CCC(C#N)N(Cc1ccc(CN(C(=O)c2ccccc2)C(C#N)CC)cc1)C(=O)c1ccccc1 (stereo not given)
2. Fc1cc(C2=C[C@H](c3ccc4c(c3)OCO4)NC(=S)N2)c(Cl)cc1Cl

A)
1. 90.4 µM
2. > 100 µM

Please go through the list and note TGI for each molecule.
1. COc1cc(/C=C2\N=C(c3ccccc3)N(c3nc4c(Cl)cc(Cl)cc4s3)C2=O)ccc1O
2. Brc1ccc(-c2ccc(-c3ccc(-c4ccc(Br)s4)s3)s2)s1

A)
1. > 100 µM
2. > 100 µM

Please go through the list and note TGI for each molecule.
1. CCC1(O)C(=O)OCc2c1cc1n(c2=O)Cc2c-1nc1ccccc1c2OC (stereo not given)
2. C/C(Sc1ccccc1)=C1/CCCN(Cc2ccccc2)C1
3. C/C=C/C=C/C1=NN(c2cccc(S(=O)(=O)O)c2)C2(C1)C(Cl)C(=O)N2c1nc2ccccc2s1 (stereo not given)

A)
< 0.01 µM
61.4 µM
36.2 µM

Please go through the list and note TGI for each molecule.
1. O=C(N/N=C\c1ccc([N+](=O)[O-])cc1)Nc1ccccc1
2. COc1ccc2cc(-c3ccc(OC)c(OC)c3)c(=O)oc2c1
3. Cc1cc(=O)cc2sc3cc(Cl)ccc3nc1-2

A)
["> 100 µM", "> 100 µM", "29.7 µM"]

Please go through the list and note TGI for each molecule.
1. O=S1c2ccccc2N=C(c2ccc3ccccc3c2)CC1c1ccccc1 (stereo not given)
2. COC(=O)c1c(O)ccc2c1c1c(n2Cc2ccccn2)C(=O)c2ccccc2C1

A)
1. > 100 µM
2. > 100 µM

Please go through the list and note TGI for each molecule.
1. CC(=O)OCC1OC(O[C@@H]2C[C@H]3C(C)(C)[C@H](OC(C)=O)CC[C@]3(C)[C@H]3CC[C@@]45C[C@H](O)C[C@H](C)[C@@H]4CC=C5[C@@]32C)C(O)C(O)C1O (stereo not given in full)
2. Cn1c2c(c3c(=O)[nH]ncc31)CCc1ccccc1-2

A)
1: 23.8 µM; 2: > 100 µM

Please go through the list and note TGI for each molecule.
1. COc1ccc(C2Cc3cc(OC)c(OC)c(OC)c3C2=O)cc1 (stereo not given)
2. Nc1cccc(-c2nc3sccn3c2-c2ccnc(NCCCNS(=O)(=O)c3ccc(C(F)(F)F)cc3)n2)c1
3. CCN(CC)CCC(=O)c1ccc(Oc2ccc(C)cc2)cc1
4. COc1ccccc1/C=C1\CCC(CN(C)C)C1=O (stereo not given)

A)
1: > 100 µM; 2: 24.3 µM; 3: 39.3 µM; 4: 36.4 µM

Please go through the list and note TGI for each molecule.
1. Cc1nc2ccc(N=Nc3c(O)ccc4ccccc34)cc2[nH]1
2. CCOC(=O)c1c(N2CCOCC2)[nH]c(=O)c(C(c2c(O)c(C(=O)OCC)c(N3CCOCC3)[nH]c2=O)C(C)C)c1O
3. Nc1ccc(S(=O)(=O)Nc2nc3ccccc3nc2Nc2ccc(S(N)(=O)=O)cc2)cc1

A)
1. > 100 µM
2. > 100 µM
3. > 100 µM
